src = paper PMC9756503

- TARGET_OR_TEST_SYSTEM: Recombinant human PDE5 (Homo sapiens, UniProt O76074)
- Construct: purchased Sigma-Aldrich
- RUN_DESCRIPTION: Inhibition of PDE5-mediated enzymatic breakdown of cGMP
- Assay type: biochemical
- RUN_CONDITIONS: 20 °C; Cheng-Prusoff
ASSAY_READOUT: Ki (µM)

- STRUCTURE_SMILES: "CC(=O)CCCCn1c(=O)c2c(ncn2C)n(C)c1=O"
  ASSAY_READOUT: "Ki"
  MEASURED_NUMBER: 10

###

- TARGET_OR_TEST_SYSTEM: ABCC4 (Homo sapiens, UniProt O15439)
- Construct: inside-out vesicles (IOV)s where erythrocytes from healthy, human donors were sampled; endogenous in cells; host or cells: inside-out vesicles from erythrocytes of healthy human donors
- RUN_DESCRIPTION: biochemical
- Format: biochemical
- RUN_CONDITIONS: 28 °C; Cheng-Prusoff; read-out: Ki for inhibition of cAMP-efflux

- MOLECULE: "CC(=O)CCCCn1c(=O)c2c(ncn2C)n(C)c1=O [pentoxifylline]"
  READOUT_UNIT: "nM"
  Ki: 918

###

- TARGET_OR_TEST_SYSTEM: ABCC4 (Homo sapiens)
- Construct: inside-out vesicles (IOV)s where erythrocytes from healthy, human donors were sampled; endogenous in cells; host or cells: inside-out vesicles from erythrocytes of healthy human donors
- Sequence (O15439 1-1325): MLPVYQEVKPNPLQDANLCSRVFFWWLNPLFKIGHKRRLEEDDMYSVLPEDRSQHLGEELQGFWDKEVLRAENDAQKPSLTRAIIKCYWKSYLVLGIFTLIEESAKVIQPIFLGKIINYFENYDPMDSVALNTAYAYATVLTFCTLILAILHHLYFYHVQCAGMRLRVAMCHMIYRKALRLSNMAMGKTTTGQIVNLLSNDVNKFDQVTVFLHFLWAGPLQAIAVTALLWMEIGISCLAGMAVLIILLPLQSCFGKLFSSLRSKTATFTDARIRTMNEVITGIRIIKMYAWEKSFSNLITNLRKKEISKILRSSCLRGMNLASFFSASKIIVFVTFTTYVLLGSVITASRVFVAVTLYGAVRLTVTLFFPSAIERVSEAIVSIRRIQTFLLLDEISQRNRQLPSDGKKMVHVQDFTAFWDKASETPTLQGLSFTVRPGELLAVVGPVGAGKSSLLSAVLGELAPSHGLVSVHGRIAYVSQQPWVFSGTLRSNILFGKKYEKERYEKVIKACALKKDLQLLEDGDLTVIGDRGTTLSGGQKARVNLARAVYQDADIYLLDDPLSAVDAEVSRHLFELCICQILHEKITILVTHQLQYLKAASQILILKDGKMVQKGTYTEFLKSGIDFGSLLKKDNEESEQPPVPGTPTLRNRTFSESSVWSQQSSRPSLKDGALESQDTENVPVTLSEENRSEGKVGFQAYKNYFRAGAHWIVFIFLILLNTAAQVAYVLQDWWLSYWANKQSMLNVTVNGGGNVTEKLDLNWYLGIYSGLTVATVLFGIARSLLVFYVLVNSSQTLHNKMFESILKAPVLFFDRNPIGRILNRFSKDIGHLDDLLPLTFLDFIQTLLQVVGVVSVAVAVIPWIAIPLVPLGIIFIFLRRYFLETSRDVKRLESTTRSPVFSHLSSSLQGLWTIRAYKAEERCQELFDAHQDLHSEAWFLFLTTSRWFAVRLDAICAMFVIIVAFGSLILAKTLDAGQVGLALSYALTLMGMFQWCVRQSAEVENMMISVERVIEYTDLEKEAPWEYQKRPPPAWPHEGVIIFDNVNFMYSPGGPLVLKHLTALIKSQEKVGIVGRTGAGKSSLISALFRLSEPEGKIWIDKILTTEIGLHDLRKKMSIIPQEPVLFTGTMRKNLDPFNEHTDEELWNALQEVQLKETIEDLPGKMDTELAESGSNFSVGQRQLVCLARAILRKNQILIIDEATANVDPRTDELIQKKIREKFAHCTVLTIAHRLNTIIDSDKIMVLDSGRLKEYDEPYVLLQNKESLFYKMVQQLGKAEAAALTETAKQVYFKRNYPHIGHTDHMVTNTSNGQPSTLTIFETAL
- RUN_DESCRIPTION: biochemical
- Format: biochemical
- RUN_CONDITIONS: 34 °C; read-out: IC50 for inhibition of cAMP-efflux
pIC50: −log10 of the molar value.
ASSAY_READOUT: pIC50

- STRUCTURE_SMILES: "CC(=O)CCCCn1c(=O)c2c(ncn2C)n(C)c1=O"
  MEASURED_NUMBER: 5.44
